EXPERIMENT DESCRIPTION: Caspase-3/7 induction in CHO-K1 cells by small molecules, qHTS cell viability counter screen (AID 1346979); further: nearly all actives have a fitted effect of over 35% in size
COND: CellTiter-Fluor fluorescence, 17 h; series mostly up to 92.4 µM
Inconclusive results are not listed. Activity calls are given as the source filed them. The call rests on the fitted dose curve; in most records, active means well fitted cell-killing curve with a large enough effect in the repeat runs; inconclusive means weak or mixed curves, or effect the other way; inactive means no such curve, though single readings can be large or run the other way.
Allowed answers: active, inactive

# input Per the assay record, what outcome was assigned to CC(C)C1CCC(Cc2ccc(Cl)cc2)C1(O)Cn1cncn1 (configuration not stated) ?
# output active

# input Outcome logged for N#CCCC(Br)(C#N)CBr (configuration not stated) in this assay:
# output active

# input // return assay outcome for C=CC(=O)OCC(COC(=O)C=C)(COC(=O)C=C)COC(=O)C=C
# output active

# input Per the assay record, what outcome was assigned to CCCCCCCCCCBr ?
# output inactive

# input For [Hg+2].[I-].[I-] , what call appears in the results of this test?
# output active

# input Please state the recorded outcome for this compound: COP(=O)(OC)SCn1c(=O)oc2cc(Cl)cnc21
# output inactive

# input What classification did N#Cc1c(-c2ccc(Cl)cc2)[nH]c(C(F)(F)F)c1Br end up with in this test?
# output active

# input Check the results log: what was the call for CCC(C)c1cc(C(C)(C)C)cc(-n2nc3ccccc3n2)c1O (configuration not stated) ?
# output inactive

# input Assay outcome for CC(C)(C)c1cc([N+](=O)[O-])cc(C(C)(C)C)c1O : what was it?
# output active

# input Can you look up the reported call for CN(C)C(=S)[S-].CN(C)C(=S)[S-].[Cu+2] for me?
# output active

# input How was CCOP(=S)(OCC)SCS(=O)(=O)C(C)(C)C classified in this test?
# output inactive

# input Each compound tested received a call. Report the one for CCCCCCCCCCCCCCCCCCn1cc[n+](C)c1 .
# output active

# input Outcome? N#C/C=C/C#N
# output active

# input Which result was noted for this compound in the test: CCOC(=O)OC1=C(c2cc(C)ccc2C)C(=O)NC12CCC(OC)CC2 (configuration not stated)
# output inactive

# input Which outcome did this test record for the compound Oc1ccc(C2(c3ccc(O)cc3)c3ccccc3-c3ccccc32)cc1 ?
# output active

# input GET /call?item= CC(C)(C)C(O)C(Oc1ccc(-c2ccccc2)cc1)n1cncn1 (configuration not stated) returns the recorded outcome of this test.
# output active

# input Recorded test call requested for C[C@@H]1CC[C@@]2(OC1)O[C@H]1[C@@H](O)[C@H]3[C@@H]4CC[C@H]5C[C@@H](O[C@@H]6O[C@H](CO)[C@H](O[C@@H]7O[C@H](CO)[C@@H](O)[C@H](O[C@@H]8OC[C@@H](O)[C@H](O)[C@H]8O)[C@H]7O[C@@H]7O[C@H](CO)[C@@H](O)[C@H](O[C@@H]8O[C@H](CO)[C@@H](O)[C@H](O)[C@H]8O)[C@H]7O)[C@H](O)[C@H]6O)[C@H](O)C[C@]5(C)[C@H]4CC[C@]3(C)[C@H]1[C@@H]2C
# output active

# input Dear colleague, could you share the recorded outcome for O=c1oc2ccccc2c(O)c1Cc1c(O)c2ccccc2oc1=O when you have a moment?
# output inactive

# input Write down the call the test reported for this compound. Item: CC(C)OC(=S)S
# output active

# input Look up the recorded call for CCN in this test.
# output inactive

# input Called result for N#C/C=C/c1ccccc1
# output inactive

# input For this compound, state the assay outcome: CCCN(CCC)CCc1c[nH]c2ccccc12
# output inactive

Data origin, for the record: PubChem BioAssay (Tox21)
